experimental-target: bovine cardiac myofibrils (full-length cardiac myosin ATPase in the native sarcomere) (Bos taurus (Bovine), UniProt Q9BE39)
Sequence (Q9BE39 whole entry): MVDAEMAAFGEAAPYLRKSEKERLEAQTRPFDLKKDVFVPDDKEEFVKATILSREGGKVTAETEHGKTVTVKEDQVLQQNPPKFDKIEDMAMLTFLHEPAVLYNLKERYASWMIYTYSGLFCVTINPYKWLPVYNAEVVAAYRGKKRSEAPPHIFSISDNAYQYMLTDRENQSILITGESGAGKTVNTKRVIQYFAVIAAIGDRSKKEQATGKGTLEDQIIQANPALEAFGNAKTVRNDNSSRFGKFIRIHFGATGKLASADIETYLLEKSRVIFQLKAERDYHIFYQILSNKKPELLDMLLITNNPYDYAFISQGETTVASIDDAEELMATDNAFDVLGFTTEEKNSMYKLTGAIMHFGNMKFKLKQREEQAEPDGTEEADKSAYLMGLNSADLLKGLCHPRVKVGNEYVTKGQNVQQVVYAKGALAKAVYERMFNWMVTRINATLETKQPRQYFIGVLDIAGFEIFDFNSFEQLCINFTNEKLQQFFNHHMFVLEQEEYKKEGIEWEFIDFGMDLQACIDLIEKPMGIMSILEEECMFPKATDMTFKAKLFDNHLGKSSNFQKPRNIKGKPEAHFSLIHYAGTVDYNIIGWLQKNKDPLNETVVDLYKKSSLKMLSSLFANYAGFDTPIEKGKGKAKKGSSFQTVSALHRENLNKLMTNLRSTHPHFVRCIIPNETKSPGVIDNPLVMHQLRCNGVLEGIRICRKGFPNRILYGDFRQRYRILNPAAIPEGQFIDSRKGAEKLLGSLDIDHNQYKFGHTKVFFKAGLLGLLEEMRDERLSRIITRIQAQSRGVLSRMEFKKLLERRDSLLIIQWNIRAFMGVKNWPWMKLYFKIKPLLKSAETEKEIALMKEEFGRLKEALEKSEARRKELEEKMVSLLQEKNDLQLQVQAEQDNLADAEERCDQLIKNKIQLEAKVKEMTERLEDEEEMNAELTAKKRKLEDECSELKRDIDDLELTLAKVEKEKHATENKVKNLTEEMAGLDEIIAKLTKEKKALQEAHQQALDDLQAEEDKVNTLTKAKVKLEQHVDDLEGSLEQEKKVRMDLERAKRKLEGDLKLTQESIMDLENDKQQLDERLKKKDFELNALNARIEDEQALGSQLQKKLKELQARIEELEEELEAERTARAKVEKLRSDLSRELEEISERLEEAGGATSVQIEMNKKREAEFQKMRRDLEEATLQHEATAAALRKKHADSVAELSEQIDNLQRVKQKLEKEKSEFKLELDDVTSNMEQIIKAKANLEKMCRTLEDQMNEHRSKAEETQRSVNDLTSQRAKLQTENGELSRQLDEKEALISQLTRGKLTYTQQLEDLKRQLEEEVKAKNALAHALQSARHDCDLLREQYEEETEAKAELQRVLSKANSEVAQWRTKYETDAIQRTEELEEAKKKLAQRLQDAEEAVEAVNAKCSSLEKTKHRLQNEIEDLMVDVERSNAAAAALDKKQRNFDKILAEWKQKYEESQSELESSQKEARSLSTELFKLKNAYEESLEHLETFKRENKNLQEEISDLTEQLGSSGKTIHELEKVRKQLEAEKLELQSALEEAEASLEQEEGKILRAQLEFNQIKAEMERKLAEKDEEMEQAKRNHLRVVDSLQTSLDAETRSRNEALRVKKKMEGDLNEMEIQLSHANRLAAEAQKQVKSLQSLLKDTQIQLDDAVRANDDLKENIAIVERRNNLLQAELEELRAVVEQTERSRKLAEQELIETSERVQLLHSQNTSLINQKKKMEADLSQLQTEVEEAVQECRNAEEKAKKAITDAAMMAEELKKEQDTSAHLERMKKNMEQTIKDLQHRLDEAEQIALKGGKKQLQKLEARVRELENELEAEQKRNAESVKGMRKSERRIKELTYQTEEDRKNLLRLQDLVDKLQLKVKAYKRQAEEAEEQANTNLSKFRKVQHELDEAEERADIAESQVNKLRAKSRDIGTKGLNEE
Sequence (P85100 whole entry partner): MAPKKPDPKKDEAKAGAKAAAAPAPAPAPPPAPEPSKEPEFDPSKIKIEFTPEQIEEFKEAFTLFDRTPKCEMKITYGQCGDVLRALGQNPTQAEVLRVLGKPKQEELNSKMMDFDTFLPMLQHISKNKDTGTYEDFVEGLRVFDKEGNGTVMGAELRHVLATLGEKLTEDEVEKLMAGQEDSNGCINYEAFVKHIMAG
Sequence (Q3SZE5 whole entry partner): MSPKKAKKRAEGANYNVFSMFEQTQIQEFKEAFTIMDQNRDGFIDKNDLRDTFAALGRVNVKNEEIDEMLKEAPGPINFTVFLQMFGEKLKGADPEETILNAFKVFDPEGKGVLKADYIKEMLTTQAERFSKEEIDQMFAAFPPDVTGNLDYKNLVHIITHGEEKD
experimental-details: Skinned bovine cardiac myofibril ATPase assay (PK/LDH-coupled)
Assay type: biochemical
condition-summary: Ca2+ activating to 75% of maximal rate, concentration giving 15% inhibition
Field: CDMF75 IC15. Provide a value for each of the compounds that follow.
Give bare numbers, in nM.

**Q:** CDMF75 IC15 lookup needed for CCc1cc(-c2ccc3c(c2)CC[C@H]3NC(=O)c2nnn(C)n2)no1 , thanks.
**A:** 300

**Q:** Next compound: COCc1nc(-c2ccc3c(c2)OC[C@H]3NC(=O)c2cccc(CO)c2)no1 [Compound 712]
**A:** 500

**Q:** Next compound: CCc1cc(-c2ccc3c(c2)OC[C@H]3NC(=O)c2cnn(C)c2)no1
**A:** 300

**Q:** Next compound: COCCn1cc(C(=O)N[C@@H]2CCc3cc(-c4noc(C5CCC5)n4)ccc32)cn1
**A:** 2200

**Q:** Next compound: Cc1cc(C(=O)NC2CCc3cc(-c4cnc(C)o4)ccc32)ccn1 (stereo not shown)
**A:** 39200

Hi team, please reply with CDMF75 IC15 for each item in this list.
1. Cn1nccc1C(=O)NC1CCc2cc(-c3noc(C(F)F)n3)ccc21 (stereo not shown)
2. Cn1nnc(C(=O)N[C@@H]2COc3cc(-c4noc(C5CC5)n4)ccc32)n1
3. CCc1nc(-c2ccc3c(c2)CC[C@H]3NC(=O)c2cc(C(C)=O)ccn2)no1
4. Cc1cc(C(=O)N[C@@H]2CCc3cc(-c4noc(C)n4)ccc32)ccn1

**A:**
1: 500; 2: 1200; 3: 2300; 4: 1000

Hi team, please reply with CDMF75 IC15 for each item in this list.
1. [2H]C([2H])([2H])c1noc(-c2ccc3c(c2)OC[C@H]3NC(=O)c2ccnn2C)n1
2. Cc1nc(-c2ccc3c(c2)OCC3NC(=O)c2ccnn2C)no1 (stereo not shown)
3. O=C(NC1CC1)N[C@@H]1CCc2cc(-c3noc(C(F)F)n3)ccc21

**A:**
1. 700
2. 1000
3. 39200

Hi team, please reply with CDMF75 IC15 for each item in this list.
1. COCc1nc(-c2ccc3c(c2)CC[C@H]3NC(=O)c2oncc2C)no1
2. CCc1nc(-c2ccc3c(c2)CC[C@H]3NC(=O)C2CCC(=O)N(C)C2)no1 (stereo partly shown)
3. Cc1n[nH]cc1C(=O)N[C@@H]1CCc2cc(-c3noc(C4CC4)n3)ccc21
4. Cc1cnoc1C(=O)N[C@@H]1CCc2cc(-c3noc(C(C)C)n3)ccc21

**A:**
[500, 13000, 400, 300]

Hi team, please reply with CDMF75 IC15 for each item in this list.
1. CCc1nc(-c2ccc3c(c2)OCCC3NC(=O)c2cnn(C)c2)no1 (stereo not shown)
2. O=C(N[C@@H]1CCc2cc(-c3noc(C4CC4)n3)ccc21)c1cnn(CCCO)c1
3. Cc1cc(-c2ccc3c(c2)CC[C@H]3NC(=O)c2nnn(C)n2)no1
4. CC(C)c1nc(-c2ccc3c(c2)CC[C@H]3NC(=O)c2nn[nH]n2)no1

**A:**
1: 2200; 2: 1600; 3: 400; 4: 2400

Hi team, please reply with CDMF75 IC15 for each item in this list.
1. CCc1nc(-c2ccc3c(c2)CC[C@H]3NC(=O)c2cn[nH]c2OC)no1
2. CCc1nc(-c2ccc3c(c2)CC[C@H]3NC(=O)c2cnn(C[C@H](O)CO)c2)no1
3. CCc1nc(-c2ccc3c(c2)CC[C@H]3NC(=O)c2cc(C)n(C)n2)no1
4. CCc1nc(-c2ccc3c(c2)CC[C@H]3NC(=O)c2ocnc2C(F)(F)F)no1

**A:**
1. 4100
2. 700
3. 3100
4. 300

Hi team, please reply with CDMF75 IC15 for each item in this list.
1. Cc1nc(C)c(C(=O)N[C@@H]2COc3cc(-c4noc(C(F)F)n4)ccc32)o1
2. CCc1nc(-c2ccc3c(c2)OC[C@H]3NC(=O)c2cnc(C)o2)no1
3. CCc1nc(-c2ccc3c(c2)CC[C@H]3NC(C)=O)no1
4. [2H]C([2H])([2H])c1nc(-c2ccc3c(c2)CC[C@H]3NC(=O)c2nnn(C)n2)no1
5. CC(=O)N1CC[C@H]1C(=O)N[C@@H]1CCc2cc(-c3noc(C4CC4)n3)ccc21
6. Cc1nc(-c2ccc3c(c2)CC[C@H]3NC(=O)c2ccnn2C)no1
7. Cn1nccc1C(=O)N[C@@H]1CCc2cc(-c3ncccn3)ccc21

**A:**
500
400
600
1300
39200
500
8600

Hi team, please reply with CDMF75 IC15 for each item in this list.
1. COC(C)c1nc(-c2ccc3c(c2)CC[C@H]3NC(=O)c2cnn(C)c2)no1 (stereo partly shown)
2. CCc1nc(-c2ccc3c(c2)CC[C@H]3NC(=O)c2ccnc(C(C)(C)O)c2)no1
3. Cc1nccc(C(=O)NC2CCc3cc(-c4noc(C(F)F)n4)ccc32)n1 (stereo not shown)

**A:**
[3600, 2000, 7800]
